target: Human PD-L1/PD-1 (Homo sapiens, UniProt Q9NZQ7); construct: made in house; host or cells: HEK293T; assay: HTRF PD-1-Ig/PD-L1-His binding assay (human PD-L1); details: cluster symbol; read-out: HTRF IC50 cluster
Sequence (Q9NZQ7 with tags, fused parts or gaps): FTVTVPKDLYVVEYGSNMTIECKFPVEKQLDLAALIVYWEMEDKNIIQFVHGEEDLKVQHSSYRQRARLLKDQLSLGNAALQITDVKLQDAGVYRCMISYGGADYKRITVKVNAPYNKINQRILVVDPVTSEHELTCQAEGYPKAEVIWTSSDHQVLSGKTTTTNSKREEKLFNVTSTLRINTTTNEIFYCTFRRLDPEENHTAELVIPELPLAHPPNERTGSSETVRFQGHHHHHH
Positions of bridges follow the written chain, without caps; N, C: chain ends. Non-standard residues stand in square brackets, D forms with d. Residues, ends and D or L forms follow the SMILES beside them. NMeNle = CCCC[C@H](NC)C(=O)O; NMeA = CN[C@@H](C)C(=O)O; Sar = CNCC(=O)O
Value Type: IC50

## Input Hi! What's the reported IC50 for CCCC[C@H]1C(=O)N(C)[C@@H](CCCC)C(=O)N[C@@H](CCCNC(=N)N)C(=O)N[C@H](C(=O)NCC(N)=O)CSCC(=O)N[C@@H](Cc2ccccc2)C(=O)N(C)[C@@H](C)C(=O)N[C@@H](CC(=O)O)C(=O)N2CCC[C@H]2C(=O)N[C@@H](Cc2cnc[nH]2)C(=O)N[C@@H](CC(C)C)C(=O)N(C)CC(=O)N[C@@H](Cc2c[nH]c3ccccc23)C(=O)N[C@@H](CO)C(=O)N[C@@H](Cc2c[nH]c3ccccc23)C(=O)N1C [Example 1092] ({CH2CO}-F[NMeA]DPHL[Sar]WSW[NMeNle][NMeNle]RCG-NH2; thioether N-14) on Human PD-L1/PD-1 (Homo sapiens, UniProt Q9NZQ7)?
## Output 6.76 to 30.3 nM

----------
biological target: Human PD-L1/PD-1 (Homo sapiens); construct: made in house; host or cells: HEK293T; experiment: HTRF PD-1-Ig/PD-L1-His binding assay (human PD-L1); details: cluster symbol; read-out: HTRF IC50 cluster
Positions of bridges follow the written chain, without caps; N, C: chain ends. Non-standard residues stand in square brackets, D forms with d. Residues, ends and D or L forms follow the SMILES beside them. Ala(2-furyl) = N[C@@H](Cc1ccco1)C(=O)O; Bta = N[C@@H](Cc1csc2ccccc12)C(=O)O; Hyp = O=C(O)[C@@H]1C[C@@H](O)CN1; NMeF = CN[C@@H](Cc1ccccc1)C(=O)O; NMeNle = CCCC[C@H](NC)C(=O)O; NMeA = CN[C@@H](C)C(=O)O; Orn = NCCC[C@H](N)C(=O)O; Dab = NCC[C@H](N)C(=O)O; Dap = NC[C@H](N)C(=O)O; Sar = CNCC(=O)O
Value Type: IC50

Example cases with answers are listed next.
# Compound, Target Or Test System, Value Type, Observed Value
records = [
    ("CCCC[C@H]1C(=O)N(C)[C@@H](CCCC)C(=O)N[C@@H](C)C(=O)N[C@H](C(=O)NCC(=O)O)CSCC(=O)N[C@@H](Cc2ccc(O)cc2)C(=O)N(C)[C@@H](C)C(=O)N[C@@H](CC(N)=O)C(=O)N2CCC[C@H]2C(=O)N[C@@H](Cc2cnc[nH]2)C(=O)N[C@@H](CC(C)C)C(=O)N[C@@H](CCCN)C(=O)N[C@@H](Cc2c[nH]c3ccccc23)C(=O)N[C@@H](CO)C(=O)N[C@@H](Cc2c[nH]c3ccccc23)C(=O)N1C", "Human PD-L1/PD-1 (Homo sapiens)", "IC50", "6.76 to 30.3 nM"),
    ("CCCC[C@H]1C(=O)N(C)[C@@H](CCCC)C(=O)N[C@@H](Cc2cnc[nH]2)C(=O)N[C@H](C(=O)NCC(N)=O)CSCC(=O)N[C@@H](Cc2ccccc2)C(=O)N(C)[C@@H](C)C(=O)N[C@@H](CC(N)=O)C(=O)N2CCC[C@H]2C(=O)N[C@@H](Cc2cnc[nH]2)C(=O)N[C@@H](CC(C)C)C(=O)N(C)CC(=O)N[C@@H](Cc2c[nH]c3ccccc23)C(=O)N[C@@H](CO)C(=O)N[C@@H](Cc2c[nH]c3ccccc23)C(=O)N1C [Example 5013] ({CH2CO}-F[NMeA]NPHL[Sar]WSW[NMeNle][NMeNle]HCG-NH2; thioether N-14)", "Human PD-L1/PD-1 (Homo sapiens)", "IC50", "> 30.5 nM"),
    ("CCCC[C@H]1C(=O)N(C)CC(=O)N[C@@H](CC(=O)O)C(=O)N[C@@H](C(C)C)C(=O)N(C)[C@@H](Cc2ccccc2)C(=O)N[C@@H](Cc2ccc(O)cc2)C(=O)N(C)CC(=O)N[C@@H](Cc2c[nH]c3ccccc23)C(=O)N[C@@H](Cc2ccc(O)cc2)C(=O)N[C@@H](CC(C)C)C(=O)N[C@H](C(=O)NCC(N)=O)CSCC(=O)N[C@@H](Cc2ccco2)C(=O)N(C)[C@@H](Cc2ccccc2)C(=O)N1C [Example 3101] ({CH2CO}-[Ala(2-furyl)][NMeF][NMeNle][Sar]DV[NMeF]Y[Sar]WYLCG-NH2; thioether N-13)", "Human PD-L1/PD-1 (Homo sapiens)", "IC50", "> 30.5 nM"),
    ("CCCC[C@H]1C(=O)N(C)[C@@H](CCCC)C(=O)N[C@@H](CCCN)C(=O)N[C@H](C(=O)NCC(N)=O)CSCC(=O)N[C@@H](Cc2ccc(O)cc2)C(=O)N2CCC[C@H]2C(=O)N[C@@H](CC(=O)O)C(=O)N2CCC[C@H]2C(=O)N[C@@H](CN)C(=O)N[C@@H](CCC(=O)O)C(=O)N2C[C@H](O)C[C@H]2C(=O)N[C@@H](Cc2c[nH]c3ccccc23)C(=O)N[C@@H](CCN)C(=O)N[C@@H](Cc2csc3ccccc23)C(=O)N1C [Example 1193] ({CH2CO}-YPDP[Dap]E[Hyp]W[Dab][Bta][NMeNle][NMeNle][Orn]CG-NH2; thioether N-14)", "Human PD-L1/PD-1 (Homo sapiens)", "IC50", "0.385 to 6.74 nM"),
]

// next item, IC50 requested
## Input // query IC50 value for entry CCCC[C@H]1C(=O)N(C)[C@@H](CCCC)C(=O)N[C@@H](C)C(=O)N[C@H](C(=O)NCC(=O)O)CSCC(=O)N[C@@H](Cc2ccc(O)cc2)C(=O)N(C)[C@@H](C)C(=O)N[C@@H](CC(N)=O)C(=O)N2CCC[C@H]2C(=O)N[C@@H](Cc2cnc[nH]2)C(=O)N[C@@H](CC(C)C)C(=O)N[C@@H](CCCCN)C(=O)N[C@@H](Cc2c[nH]c3ccccc23)C(=O)N[C@@H](CO)C(=O)N[C@@H](Cc2c[nH]c3ccccc23)C(=O)N1C
## Output 6.76 to 30.3 nM

Values compiled from patent US9850283B2.
